Assay: Solubility measurement of Form I in solvent systems (HPLC)
Assay type: physicochemical
Settings: 50 °C, organic solvent or mixture, thermodynamic from solid; solvent DMF; stirred 24 h; HPLC; read-out: Solubility at 50° C.
Measurement kind: solubility at 24 h

**Q:** Requested read-out: solubility at 24 h. Entry: CCN1C(=O)N(c2c(F)c(OC)cc(OC)c2F)Cc2cnc3[nH]c(CN4CCOCC4)cc3c21 [Form I]
**A:** > 50 mg/mL

* * *

Assay: Solubility measurement of Form I in solvent systems (HPLC)
Format: physicochemical
Details: 50 °C, organic solvent or mixture, thermodynamic from solid; solvent DMSO; stirred 24 h; HPLC; read-out: Solubility at 50° C.
Measurement kind: solubility at 24 h

**Q:** Requested read-out: solubility at 24 h. Entry: CCN1C(=O)N(c2c(F)c(OC)cc(OC)c2F)Cc2cnc3[nH]c(CN4CCOCC4)cc3c21 [Form I]
**A:** > 50 mg/mL
